The entries that follow carry IC50 values tested on Glutaminyl-peptide cyclotransferase (Homo sapiens, UniProt Q16769), drawn from several published reports.

Smi: c1ccc(SCc2nnc(-c3ccc4[nH]cnc4c3)s2)cc1
Censoring qualifier: =
IC50 [µM]: 0.53
//
Smi: Fc1ccccc1-c1cccn2cncc12
Censoring qualifier: =
IC50 [µM]: 20.6
//
Smi: Fc1ccc(-c2cccn3cncc23)cc1
Censoring qualifier: =
IC50 [µM]: 10.6
//
Smi: CSc1ccc(CCc2nnc(-c3ccc4[nH]cnc4c3)s2)cc1
Censoring qualifier: =
IC50 [µM]: 0.76
//
Smi: Cc1ccc(-c2cc(NCCCn3ccnc3)nc(-c3ccccc3)n2)cc1
Censoring qualifier: =
IC50 [µM]: 14.4
//
Smi: Fc1ccc(N2CCN(C(=S)Nc3ccc4[nH]cnc4c3)CC2)cc1
Censoring qualifier: =
IC50 [µM]: 323
//
Smi: CCCCNC(=S)NCCCn1ccnc1
Censoring qualifier: =
IC50 [µM]: 14
//
Smi: Cc1cn(CCCN/C(=N/C#N)Nc2ccc(Cl)c(Cl)c2)cn1
Censoring qualifier: =
IC50 [µM]: 17.1
//
Smi: COc1ccc(CN(Cc2ccc3nsnc3c2)c2ccc3[nH]cnc3c2)cc1
Censoring qualifier: <
IC50 [µM]: 10
//
Smi: COc1ccc(Cn2cnnc2-c2ccc3[nH]cnc3c2)cc1
Censoring qualifier: =
IC50 [µM]: 0.64
//
Smi: COc1ccccc1-c1cc(NCCCn2ccnc2)nc(-c2ccccc2)n1
Censoring qualifier: =
IC50 [µM]: 22.6
//
Smi: FC(F)(F)Oc1ccccc1-c1cccn2cncc12
Censoring qualifier: =
IC50 [µM]: 36.5
//
Smi: CN(C)c1ccc(CN(Cc2ccc3nsnc3c2)c2ccc3[nH]cnc3c2)cc1
Censoring qualifier: <
IC50 [µM]: 10
//
Smi: COc1cc(N/C(=N\C#N)NCCCn2cnc(C)c2)cc(OC)c1
Censoring qualifier: =
IC50 [µM]: 12.3
//
Smi: COc1ccc(N/C(=N/C#N)NCCCn2cncc2C)cc1
Censoring qualifier: =
IC50 [µM]: 0.79
//
Smi: CSc1ccc(CN(Cc2cc(F)cc(F)c2)c2ccc3[nH]cnc3c2)cc1
Censoring qualifier: <
IC50 [µM]: 10
//
Smi: COc1c(C)cc(-c2cccn3cncc23)cc1C
Censoring qualifier: =
IC50 [µM]: 27.4
//
Smi: Clc1ccccc1-c1cccn2cncc12
Censoring qualifier: =
IC50 [µM]: 47.7
//
Smi: COc1cccc(-c2cc(NCCCn3ccnc3)nc(-c3ccccc3)n2)c1
Censoring qualifier: =
IC50 [µM]: 9.37
//
Smi: CSc1ccc(CNc2ccc3[nH]cnc3c2)cc1
Censoring qualifier: <
IC50 [µM]: 10
//
Smi: CC(C)[C@H]1COC(=O)N1c1ccc2[nH]cnc2c1
Censoring qualifier: <
IC50 [µM]: 10

* * *

The following compounds were reported with pIC50 values on Glutaminyl-peptide cyclotransferase (Homo sapiens, UniProt Q16769) in different studies.
pIC50: −log10 of the molar value.

Compound: O=C1CSC(c2ccsc2)N1c1ccc2nc[nH]c2c1 (stereo not drawn)
Censoring qualifier: >
pIC50: 5.00
--
Compound: COc1cccc(-c2cccn3cncc23)c1
Censoring qualifier: =
pIC50: 5.21
--
Compound: Clc1ccc2scc(CNc3ccc4[nH]cnc4c3)c2c1
Censoring qualifier: >
pIC50: 5.00
--
Compound: Brc1ccc(CN(Cc2ccc(Br)cc2)c2ccc3[nH]cnc3c2)cc1
Censoring qualifier: >
pIC50: 5.00
--
Compound: c1cc(-c2ccc3c(c2)OCO3)c2cncn2c1
Censoring qualifier: =
pIC50: 4.53
--
Compound: c1ccc(-c2ccccc2-c2cccn3cncc23)cc1
Censoring qualifier: =
pIC50: 4.44
--
Compound: Cc1cncn1CCCN/C(=N/C#N)Nc1ccc(C#N)cc1
Censoring qualifier: =
pIC50: 5.98
--
Compound: Clc1cccc(Cn2cnnc2-c2ccc3[nH]cnc3c2)c1Cl
Censoring qualifier: =
pIC50: 6.28
--
Compound: COc1cc(-c2cc(NCCCn3ccnc3)nc(-c3ccccc3)n2)cc(OC)c1OC
Censoring qualifier: =
pIC50: 5.15
